Reference source for all entries: patent US20240270857A1

Below, each entry is listed alongside its reported Maximum inhibition rate %; hIL36α; IL-8 production.
Biological target: T1, IL-36R naturally expressed on OVCAR8 cells and on normal human epidermal keratinocytes (NHK cells) (human, UniProt Q9HB29 20-575)
T1 sequence (looked up): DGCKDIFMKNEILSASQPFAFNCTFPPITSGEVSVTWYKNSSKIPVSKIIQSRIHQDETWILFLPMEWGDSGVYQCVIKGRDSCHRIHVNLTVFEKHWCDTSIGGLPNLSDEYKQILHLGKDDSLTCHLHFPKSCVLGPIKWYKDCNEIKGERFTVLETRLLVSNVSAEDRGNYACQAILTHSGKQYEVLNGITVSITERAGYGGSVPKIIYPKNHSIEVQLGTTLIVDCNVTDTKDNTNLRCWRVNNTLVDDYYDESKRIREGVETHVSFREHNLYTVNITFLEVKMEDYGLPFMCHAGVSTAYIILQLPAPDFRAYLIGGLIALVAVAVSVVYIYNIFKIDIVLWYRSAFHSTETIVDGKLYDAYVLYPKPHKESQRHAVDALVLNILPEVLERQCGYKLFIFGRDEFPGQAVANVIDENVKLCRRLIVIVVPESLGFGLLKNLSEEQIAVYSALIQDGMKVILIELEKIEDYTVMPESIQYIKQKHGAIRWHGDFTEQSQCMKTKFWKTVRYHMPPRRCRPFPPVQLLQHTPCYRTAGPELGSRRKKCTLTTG
Experiment: cell-based or functional assay
Report the value in % with no unit label.

| BINDER | MEASURED_VALUE |
| --- | --- |
| hz84C4-2.5 (antibody, human IgG4 S228P, kappa, V domains shown, Humanized, human IgG4 / kappa) VH: QVQLVQSGAEVKKPGASVKVSCKVSGYFFTSYWMNWVNQAPGQGLEWMGMIHPYDSETRLAQKFKGRVTMTVDKSTSTVYMELSSLRSEDTAVYYCASSTTAFAYWGQGTLVTVSS VL: DIQMTQSPSSLSASVGDRVTITCRASQDIGNALNWLQQKPGKAPKRLIYATSSLDPGVPSRFSGSRSGTDYTLTISSLQPEDFATYYCLQYASSPYTFGQGTKVEIKR | 100 |
| hz84C4-1.1 (antibody, human IgG4 S228P, kappa, V domains shown, Humanized, human IgG4 / kappa) VH: QVQLVQSGAEVKKPGASVKVSCKASGYFFTSYWMNWVRQAPGQGLEWMGMIHPYDSETRYAQKFQGRVTMTVDKSTSTVYMELSSLRSEDTAVYYCASSTTAFAYWGQGTLVTVSS VL: DIQMTQSPSSLSASVGDRVTITCRASQDIGNALNWYQQKPGKAPKRLIYATSSLDPGVPSRFSGSRSGTDFTLTISSLQPEDFATYYCLQYASSPYTFGQGTKVEIKR | 99.7 |
| hz84C4-1.2 (antibody, human IgG4 S228P, kappa, V domains shown, Humanized, human IgG4 / kappa) VH: QVQLVQSGAEVKKPGASVKVSCKASGYFFTSYWMNWVRQAPGQGLEWMGYIHPYDSETRYAQKFQGRVTMTVDKSTSTVYMELSSLRSEDTAVYYCASSTTAFAYWGQGTLVTVSS VL: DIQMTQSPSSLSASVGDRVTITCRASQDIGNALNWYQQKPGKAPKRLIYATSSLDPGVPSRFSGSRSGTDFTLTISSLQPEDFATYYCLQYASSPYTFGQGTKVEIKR | 99.1 |
| hz84C4-2.3 (antibody, human IgG4 S228P, kappa, V domains shown, Humanized, human IgG4 / kappa) VH: QVQLVQSGAEVKKPGASVKVSCKASGYFFTSYWMNWVRQAPGQGLEWMGMIYPYDSETRYAQKFQGRVTMTVDKSTSTVYMELSSLRSEDTAVYYCASSTTAFAYWGQGTLVTVSS VL: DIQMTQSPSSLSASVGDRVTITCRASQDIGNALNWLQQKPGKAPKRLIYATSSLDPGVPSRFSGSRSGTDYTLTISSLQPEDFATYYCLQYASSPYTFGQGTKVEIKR | 28.4 |
| hz84C4-2.2 (antibody, human IgG4 S228P, kappa, V domains shown, Humanized, human IgG4 / kappa) VH: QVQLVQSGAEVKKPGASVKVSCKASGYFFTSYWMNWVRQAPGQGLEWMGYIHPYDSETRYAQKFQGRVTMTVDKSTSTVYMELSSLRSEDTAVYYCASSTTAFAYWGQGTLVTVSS VL: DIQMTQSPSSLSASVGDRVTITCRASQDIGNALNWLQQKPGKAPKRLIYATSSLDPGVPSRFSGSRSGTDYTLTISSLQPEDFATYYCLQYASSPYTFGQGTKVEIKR | 99.2 |
| hz84C4-2.1 (antibody, human IgG4 S228P, kappa, V domains shown, Humanized, human IgG4 / kappa) VH: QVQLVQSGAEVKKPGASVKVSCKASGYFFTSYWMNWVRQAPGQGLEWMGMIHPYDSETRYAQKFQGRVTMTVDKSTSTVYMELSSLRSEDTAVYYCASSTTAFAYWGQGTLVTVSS VL: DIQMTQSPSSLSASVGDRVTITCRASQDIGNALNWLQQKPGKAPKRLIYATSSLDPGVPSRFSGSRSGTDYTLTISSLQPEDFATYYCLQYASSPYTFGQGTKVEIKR | 99.9 |

Attention now turns to another entry.
Which value of Maximum inhibition rate %; hIL36α; IL-8 production has been reported for hz84C4-1.5 (antibody, human IgG4 S228P, kappa, V domains shown, Humanized, human IgG4 / kappa) VH: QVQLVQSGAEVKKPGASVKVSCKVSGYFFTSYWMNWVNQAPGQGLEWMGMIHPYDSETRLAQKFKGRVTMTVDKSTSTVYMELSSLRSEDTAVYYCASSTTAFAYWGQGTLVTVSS VL: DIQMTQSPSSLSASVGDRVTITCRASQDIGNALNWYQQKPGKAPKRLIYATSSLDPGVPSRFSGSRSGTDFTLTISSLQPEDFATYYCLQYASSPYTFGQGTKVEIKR in the records?
99.5
